# System: SW480
# protocol: TCF/Wnt firefly luciferase reporter signal relative to plate median (fraction of plate median); higher = higher Wnt reporter signal
# condition description: 10 µM; treatment time 24 h; reporter: 7TFP
Hi all, reminder that labels come from TCF/Wnt firefly luciferase reporter signal, split as 0 (below 0.9), 1 (0.9 to below 1), 2 (1 or more)

Band for O=C1NC(=O)C(=Cc2ccc(-c3ccc(F)cc3)o2)S1 (stereo in doubt) ?
2

Lab log: `Cc1ccc(C(=O)Nc2cccc(C(F)(F)F)c2)cc1Nc1nc(-c2cccnc2)nc2c1cnn2C` — assign TCF/Wnt firefly luciferase reporter signal category
1

Into which bin does this compound go? `FC(F)c1nc2ccccc2n1-c1nc(N2CCOCC2)nc(N2CCOCC2)n1`
2

Please classify: `COC(=O)Nc1ccc(-c2nc(N3CCOCC3)c3cnn(C4CCN(C(=O)OC)CC4)c3n2)cc1`
2

Bin this entry: C[S+]([O-])c1ccc(-c2nc(-c3ccc(F)cc3)c(-c3ccncc3)[nH]2)cc1 (stereo not drawn)
1

Could you place `O=C(Nc1cc(C(F)(F)F)cc(C(F)(F)F)c1)c1cc(Cl)ccc1O` in its proper category? Many thanks.
0

Exam item: assign `CCc1cc2c(cc1N1CCC(N3CCOCC3)CC1)C(C)(C)c1[nH]c3cc(C#N)ccc3c1C2=O` to the correct category.
0

Pick a category. Item: `Cc1[nH]c(/C=C2\C(=O)Nc3ccc(S(=O)(=O)N(C)c4cccc(Cl)c4)cc32)c(C)c1C(=O)N1CCN(C)CC1`
1

Assign a category based on measured TCF/Wnt firefly luciferase reporter signal for `Nc1cccc(-c2cc3c(Oc4cccc(O)c4)ncnc3[nH]2)c1` and give only the class name.
1

Would you mind sorting CNC(=O)c1cc(Oc2ccc(NC(=O)Nc3ccc(Cl)c(C(F)(F)F)c3)c(F)c2)ccn1 [Regorafenib (BAY 73-4506)] into the appropriate category?
2

Pick a category. Item: `Cc1cc(Nc2cc(N3CCN(C)CC3)nc(/C=C/c3ccccc3)n2)n[nH]1`
0

For the record O=C(O)c1ccc2c(c1)nc(Nc1cccc(Cl)c1)c1ccncc12 [cx-4945 (Silmitasertib)] , report the class its TCF/Wnt firefly luciferase reporter signal corresponds to.
0

// bin(item) where item = `C[C@H](NC(=O)/C(C#N)=C/c1cccc(Br)n1)c1ccccc1`
0

---

I'd be grateful if you could share measured cell viability for these entries.
# Test system: DLD1
# protocol: cell viability (CellTiter-Glo) relative to plate median (fraction of plate median); higher = more viable cells
# condition description: 10 µM; treatment time 24 h; reporter: 7TFP
Could you respond with only the numeric value?

Note to self: cell viability recorded for `CN1CCN(c2nc(C3=C(c4c[nH]c5ccccc45)C(=O)NC3=O)c3ccccc3n2)CC1` was 1.08

According to the records, this compound `CN(C)Cc1cccc(N/C(=C2\C(=O)Nc3cc(C(N)=O)ccc32)c2ccccc2)c1` displays cell viability of 1.15

Record `COc1cc(N2CCC(N3CCN(C)CC3)CC2)ccc1Nc1ncc(Cl)c(Nc2ccccc2S(=O)(=O)C(C)C)n1` , field cell viability: 0.799

For `CCCCOc1c(C(=O)c2c(F)cc(C)cc2F)c[nH]c2nncc1-2` the compound record lists cell viability as 1.07

# cell viability (compound: `O=C(Cc1ccc(-c2ccc(OCCN3CCOCC3)cc2)cn1)NCc1ccccc1` ) is 0.891

---

# Tested on: SW480
# protocol: cell viability (CellTiter-Glo) relative to plate median (fraction of plate median); higher = more viable cells
# condition description: 5 µM; treatment time 24 h; reporter: 7TFP
observed property: cell viability
Please give the numeric answer without any surrounding text.

cell viability of CCC1(C)OC(=O)N(C)C1=O (configuration not stated) , assay on SW480, is 0.908

# lookup: `CC(=O)C1=C(CO)C(=O)c2cccc(O)c2C1=O` on SW480, cell viability = 0.995

Given the compound `C(=C\c1ccccc1)/CN1CCN(C(c2ccccc2)c2ccccc2)CC1` and test system SW480, the measured cell viability is 1.03

Record `CC(C)(C)CC(C)(C)c1ccc(O)c(Cc2ccc(Cl)cc2Cl)c1` / SW480, cell viability recorded as 1.03

Tested on SW480, the item `N=C(NCCCCCCNC(=N)NC(=N)Nc1ccc(Cl)cc1)NC(=N)Nc1ccc(Cl)cc1` showed cell viability equal to 1.07

cell viability value, target or system SW480, for `CC1(C)C[C@@H]2/C(CO)=C\C=C/[C@@](C)(O)CC[C@]21O` : 1

The compound CC1=CC2C(CC1=O)C(C)=CCC2C(C)C (configuration not stated) on SW480: cell viability was 1

Item `CCc1ccc2c(O)c3c(cc2c1C(=O)OC)C(=O)c1c(O)ccc(O)c1C3=O` ; assay system SW480; cell viability reported as 1.14

cell viability of `Nc1ncnc2c1ncn2[C@@H]1O[C@H](COP(=O)(O)O)[C@@H](O)[C@H]1O` , assay on SW480, is 1.03

Test item `CN(C)C(=O)Nc1ccc(Cl)c(Cl)c1` ; SW480; reported cell viability was 0.966

Here `COc1ccc(-c2oc3cc(O[C@@H]4O[C@H](CO)[C@@H](O)[C@H](O)[C@H]4O)c(OC)c(O)c3c(=O)c2OC)cc1O` was tested on SW480, and its cell viability came to 1

cell viability for SW480 with input `COc1ccc2c(c1)[C@@]1(C)CCC(=O)C[C@H]1CC2` equals 1.01

Known value: SW480 cell viability of the compound CCCCOc1cc(CC2CNC(=O)N2)ccc1OC (configuration not stated) equals 0.912

SW480 cell viability of `C[C@H](N)CO` is 0.93

Bench note, SW480: CC(c1cc2ccccc2s1)N(O)C(N)=O (configuration not stated) , cell viability reads 1.05

# lookup: `C[C@@H]1CCC[C@H](C)N1NC(=O)c1ccc(Cl)c(S(N)(=O)=O)c1` on SW480, cell viability = 0.96

Measured cell viability for this entry `COC(=O)/C=C/c1ccc(O)c(O)c1` on SW480: 0.979

For the compound `CCOc1ccc(C(=O)c2ccc(O)c(O)c2O)cc1` , the measured cell viability on SW480 was 1

Measured cell viability for this entry `CCN1CCN(C(=O)N[C@@H](C(=O)N[C@@H]2C(=O)N3C(C(=O)O)=C(CSc4nnnn4C)CS[C@H]23)c2ccc(O)cc2)C(=O)C1=O` on SW480: 0.951

Bench note, SW480: entry `N[C@@H](Cc1cc(I)c(Oc2cc(I)c(O)c(I)c2)c(I)c1)C(=O)O` , its cell viability = 0.978

The compound `CC(C)c1ncc(Cc2ccccc2)[nH]c1=O` , tested on SW480, showed cell viability of 1

Case `CCCc1cc(=O)[nH]c(=S)[nH]1` , SW480, cell viability recorded as 0.998

---

Give cell viability for every item shown.
# Test system: SW480
# protocol: cell viability (CellTiter-Glo) relative to plate median (fraction of plate median); higher = more viable cells
# condition description: 5 µM; treatment time 24 h; reporter: 7TFP
No unit in the answer, only the number.

// `COc1cc(OC)c2c(=O)c(O)c(-c3ccc(OC)c(OC)c3)oc2c1` : cell viability value = 1.01

So for `Cc1cc(C2CCCCC2)n(O)c(=O)c1` , the logged cell viability turned out to be 1.24

Per the record, `Cc1scc2c1N(C(=O)CN1CCN(C)CC1)c1ccccc1NC2=O` has cell viability of 0.996

cell viability for `COc1cc(O)c(C(C)=O)c(OC)c1` is 1.05

Query `CCN(CC)C(=S)SSC(=S)N(CC)CC` yields cell viability of 0.938

The value of cell viability measured for the molecule `C=C1CC[C@@H]2[C@](C)(CO)[C@H](O)CC[C@@]2(C)[C@@H]1C/C=C1/C(=O)OC[C@H]1O` turned out to be 1.02

---

# System: SW480
# protocol: cell viability (CellTiter-Glo) relative to plate median (fraction of plate median); higher = more viable cells
# condition description: 5 µM; treatment time 24 h; reporter: 7TFP
observed property: cell viability
Number only, no unit.

Looking up Cc1oc(=O)c2c(O)cccc2c1CO [8-Hydroxy-4-hydroxymethyl-3-methyl-isocumarin] , I found its cell viability recorded as 0.98

The compound listed as `CON` has a reported cell viability of 0.984

Looking up CN1CCOC(c2ccccc2)c2ccccc2C1 (stereo not given) , I found its cell viability recorded as 1

Memo: `O=C1CN2Cc3c(ccc(Cl)c3Cl)N=C2N1` , reported cell viability: 1

Noted for `O=C(O)CCC(=O)OC[C@@H](NC(=O)C(Cl)Cl)[C@H](O)c1ccc([N+](=O)[O-])cc1` : its cell viability reads 0.977

cell viability reading for CC(C)C1=C2[C@H]3CCC4[C@@H]5[C@H](O[C@@H]6OC[C@@H](O)[C@H](O[C@@H]4O)C65O)[C@]3(C)CC[C@@]2(C)CC1 (stereo not given in full) : 0.938

// cell viability lookup, compound = `COCCCOc1cc(C[C@@H](C[C@H](N)[C@@H](O)C[C@H](C(=O)NCC(C)(C)C(N)=O)C(C)C)C(C)C)ccc1OC` , result: 0.974

Lookup result for `COc1cc(C(=O)NCc2ccc(OCCN(C)C)cc2)cc(OC)c1OC` ; measured cell viability: 0.996

Recorded cell viability (compound OC(CCN1CCCC1)(c1ccccc1)C1CCCCC1 (stereo not given) ): 1.03

The compound `COc1cc(OC)c2c(=O)c(-c3ccccc3)coc2c1` showed cell viability equal to 1.02

Entry `CN/C(=N\CCSCc1nc[nH]c1C)NC#N` , cell viability reported as 1.04

// sample `C/C=C/C/C=C/CCC(=O)[C@H]1O[C@H]1C(N)=O` , its cell viability was 0.946

Lab note: measured cell viability of `CC[C@@H]1C(=O)OC[C@@H]1Cc1cncn1C` was 0.992

Record O=CN(O)CCCC(NC(=O)C(CO)NC(=O)C1COC(c2ccccc2O)=N1)C(=O)NCCC(=O)NC1CCCN(O)C1=O (stereo not given) [Oxachelin hydrate] , field cell viability: 1.02

The value of cell viability measured for the compound `CS(=O)(=O)c1ccc(C2=C(c3ccccc3)C(=O)OC2)cc1` turned out to be 0.971

Please fill in: cell viability reported for `O=c1cc(-c2ccccc2)oc2c(O)c(O)ccc12` = 0.98

So for CC(C)C1NC(=O)C2CCCN2C1=O (single isomer, unassigned; isomere) [Cyclo(prolylvalyl) (Isomere)] , the logged cell viability turned out to be 0.958

Sure, the documented cell viability for `CNc1ccccc1C(=O)N1CCc2c([nH]c3ccccc23)C1=O` is 0.994

compound `COC(=O)[C@@H]1[C@H]2C[C@H]3c4[nH]c5ccccc5c4CCN3C[C@@H]2CC[C@@H]1O` , cell viability observed: 1

cell viability reported for this compound `CCN(CC)Cc1cc(Nc2ccnc3cc(Cl)ccc23)ccc1O` : 0.946

Entry CC(=O)N1CCN(c2ccc(OCC3COC(Cn4ccnc4)(c4ccc(Cl)cc4Cl)O3)cc2)CC1 (stereo not given) , cell viability reported as 0.901

compound `Cc1cc(NC(=O)C2=C(O)c3ccccc3S(=O)(=O)N2C)no1` , cell viability observed: 1

Quick note, cell viability for `N[C@@H](Cc1ccc(O)c(O)c1)C(=O)O` landed at 0.99

Looking up `CNS(=O)(=O)Cc1ccc2[nH]cc(CCN(C)C)c2c1` , I found its cell viability recorded as 0.989

Record `N[C@@H](Cc1c[nH]c2ccccc12)C(=O)O` , field cell viability: 1.03

Sure, the documented cell viability for `CCn1cc(C(=O)O)c(=O)c2cc(F)c(N3CCNCC3)cc21` is 0.926

The value of cell viability measured for the compound `c1ccc2[nH]c(-c3cscn3)nc2c1` turned out to be 1.02

For reference, reported cell viability for `Cc1cccc(Nc2cc(Cl)nc(SCC(=O)O)n2)c1C` stands at 0.932

Memo: `CCCCOC(=O)c1ccc(N)cc1` , reported cell viability: 0.961

cell viability measured on `CC(C)c1c(C(=O)Nc2ccccc2)c(-c2ccccc2)c(-c2ccc(F)cc2)n1CC[C@@H](O)C[C@@H](O)CC(=O)O` = 1.01

Recorded cell viability (compound `NNC(=O)c1ccncc1` ): 0.984

// field: cell viability; key: `Cc1cc(C)nc(NS(=O)(=O)c2ccc(N)cc2)n1` ; value = 1.03

Sample `CC(=O)[C@@]1(O)CC[C@H]2[C@@H]3C[C@H](C)C4=CC(=O)C=C[C@]4(C)[C@@]3(F)[C@@H](O)C[C@@]21C` ; cell viability observed: 0.957

Notebook: CC1(C)C(O[C@@H]2OC[C@@H](O)[C@H](O)[C@H]2O)CC[C@]23CC24CC[C@]2(C)[C@@H]([C@@]5(C)CC[C@@H](C(C)(C)O)O5)[C@H](O)C[C@@]2(C)C4C[C@@H](O[C@@H]2O[C@H](CO)[C@@H](O)[C@H](O)[C@H]2O)C13 (stereo not given in full) , cell viability read as 0.982

Summary for this compound, `O=S(=O)(O)c1cc(N=C=S)ccc1/C=C/c1ccc(N=C=S)cc1S(=O)(=O)O` : cell viability is 1.01

Data point: NC(Cn1ccc(=O)c(O)c1)C(=O)O (stereo not given) ; cell viability = 0.989

For record `Cc1c(C(=O)O)c(O)cc2c1C(=O)c1c(O)c([C@@H]3O[C@H](CO)[C@@H](O)[C@H](O)[C@H]3O)c(O)c(O)c1C2=O` the listed cell viability is 0.986

Record COCCOC(=O)C1=C(C)NC(C)=C(C(=O)OC(C)C)C1c1cccc([N+](=O)[O-])c1 (stereo not given) . Reported cell viability: 0.858

Entry under test: `Oc1ccc(/C=C/c2cc(O)cc(O)c2)cc1` . Its cell viability was 1.03

The recorded cell viability for `N=C(N)NS(=O)(=O)c1ccc(N)cc1` is 0.981
